System: Saccharomyces cerevisiae
Assay: protein stability index of tFT-peptide fusion (C-terminal peptide) (PSI (0-1 scale)); higher = more stable (slower turnover);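 note: PSI is a weighted mean of sequencing reads over stability bins, variants kept only with over 10 reads, mCherry proximal and sfGFP distal, peptide attached via GGGS linker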
Settings: genetic background: wild type; temperature: 30 C
The threshold is inclusive: protein stability index of exactly 0.7 counts as 1; values below receive 0.

>>> assigned_class("VISKIAIKAKER")
0
>>> assigned_class("VLIEWKGSREKY")
1
>>> assigned_class("KKKLEIKIEKRE")
0
>>> assigned_class("GLCGGFGGLRGL")
1
>>> assigned_class("SRRYLPHRPTSL")
1
>>> assigned_class("RVDALVHLPLRL")
0
>>> assigned_class("RSLRVLLPLYFR")
0

====

Test system: Saccharomyces cerevisiae
Experiment: protein stability index of tFT-peptide fusion (C-terminal peptide) (PSI (0-1 scale)); higher = more stable (slower turnover)
Settings: genetic background: cdc53-1; temperature: 37 C
Entries are grouped by protein stability index into these classes: bottom bin: < 0.4; middle bin: ≥ 0.4 and < 0.6; top bin: ≥ 0.6

>>> assigned_class("FFGFYLKFVWCG")
"middle bin"
>>> assigned_class("CILYLSWIIFRA")
"bottom bin"
>>> assigned_class("VFLRRFGVPWVF")
"top bin"
>>> assigned_class("KRARVIWKLVVV")
"middle bin"
>>> assigned_class("KCVVMFFLRSVS")
"top bin"
>>> assigned_class("GVCLGFICVGFC")
"middle bin"
>>> assigned_class("MLSVVSFVSCTC")
"bottom bin"
>>> assigned_class("GGLLSQLLRSIG")
"top bin"
>>> assigned_class("LVPVWVGLRVLF")
"middle bin"
>>> assigned_class("FFVWLGWGMFYG")
"middle bin"
>>> assigned_class("KSSIGVWTLLIR")
"bottom bin"
>>> assigned_class("LSPRPPAPYYSP")
"top bin"
>>> assigned_class("LPILFPAALRLY")
"middle bin"
>>> assigned_class("SWMFKLCIQWNV")
"middle bin"
>>> assigned_class("YVCLVWHRNFFS")
"top bin"
>>> assigned_class("YVVCFFFKLFYF")
"bottom bin"
>>> assigned_class("MFFSWVLSISLT")
"bottom bin"
>>> assigned_class("AGAFRIVWWALR")
"top bin"
>>> assigned_class("VVRYGGVIAFRG")
"top bin"
>>> assigned_class("LFFVFCLFFIYF")
"bottom bin"
>>> assigned_class("VVPWLGYVSCFS")
"middle bin"
>>> assigned_class("ESRDRRVGIANW")
"top bin"
>>> assigned_class("RKGQNKKRNKIY")
"top bin"
>>> assigned_class("VCPCCPYVMIAG")
"top bin"
>>> assigned_class("WYYTWKQLVMIV")
"bottom bin"
>>> assigned_class("GRGFVLSVAVVA")
"middle bin"
>>> assigned_class("LLRIFLPLLYLL")
"bottom bin"
>>> assigned_class("LGRLDYKRMKRA")
"top bin"
>>> assigned_class("PLPCFVLRLPVF")
"middle bin"
>>> assigned_class("WFVLYAEVMGFW")
"bottom bin"
>>> assigned_class("IVCAVTSIFLFF")
"middle bin"
>>> assigned_class("GCWRVELLVFMC")
"bottom bin"
>>> assigned_class("WQILVRLIDFYT")
"middle bin"
>>> assigned_class("PPPAPPLSMPAP")
"top bin"
>>> assigned_class("WISDRCPSVLCY")
"bottom bin"
>>> assigned_class("RSLRVLLPLYFR")
"bottom bin"
>>> assigned_class("FLFSSLFCFLFL")
"middle bin"
>>> assigned_class("WFALFYFLVSAF")
"bottom bin"
>>> assigned_class("LNQRGKRKYLIM")
"top bin"

====

Test system: Saccharomyces cerevisiae
Experiment: protein stability index of tFT-peptide fusion (C-terminal peptide) (PSI (0-1 scale)); higher = more stable (slower turnover)
Settings: genetic background: wild type; temperature: 30 C
result type: protein stability index

>>> value_observed("PPFVPFLLIFPP")
0.611
>>> value_observed("VLFFCLVIYVGV")
0.217
>>> value_observed("KLVGSLLSPDSE")
0.724
>>> value_observed("TILPWCLFLVAD")
0.6
>>> value_observed("RGGGQVLGVRVG")
0.667
>>> value_observed("WFLLTSSTSRPP")
0.737
>>> value_observed("RVGRGGGRETRG")
0.699
>>> value_observed("VLLMRSARTAGA")
0.69
>>> value_observed("WGWVLVGVGGLV")
0.576
>>> value_observed("GRSAVRADFPFF")
0.703
>>> value_observed("VGERVSRRIQTR")
0.699
>>> value_observed("ENQGEKKKKKKR")
0.703
>>> value_observed("PLAPPLRPLVSP")
0.66
>>> value_observed("ETRIRGVMPRAY")
0.659
>>> value_observed("LVFGLGSVYLWG")
0.602
>>> value_observed("PPPLPPFPPAPP")
0.642
>>> value_observed("VGDGLGGGGQGG")
0.664
>>> value_observed("RLLCSETPPTLA")
0.665
>>> value_observed("TVSAPLFFPLNW")
0.663
>>> value_observed("SKSLRAAQGGRT")
0.684
>>> value_observed("DRSQKINKKKKK")
0.75
>>> value_observed("GGQRPKRQQLTT")
0.702
>>> value_observed("RWVEGVWGVWCG")
0.757
>>> value_observed("FSLLLSFPCSYL")
0.601
>>> value_observed("EVAVELIGAPGL")
0.699
>>> value_observed("GGGFRVLCVGLG")
0.627
>>> value_observed("WQGLSGSPILVI")
0.402
>>> value_observed("WGRAADRRRRLG")
0.346
>>> value_observed("PYVHPFRCYWVL")
0.193
>>> value_observed("FRMNEVSWDVVS")
0.675
>>> value_observed("GVWWRRVVFGRR")
0.696
>>> value_observed("SWYSRARMAGEG")
0.652
>>> value_observed("HLPSLLRPPFLL")
0.704
>>> value_observed("EYGSWIRTASRV")
0.726
>>> value_observed("LLFTFLPFRTVR")
0.709
>>> value_observed("TTPKLQPAPAVP")
0.691
>>> value_observed("GYRRTGGLHGVV")
0.716
>>> value_observed("GGAEEGRANCWN")
0.722
>>> value_observed("FGRFCYELLCGT")
0.541
>>> value_observed("PLPFRSSPLLVL")
0.614
>>> value_observed("SSPLSSRFLLCL")
0.579
>>> value_observed("PFSPPPGPPPPP")
0.681
>>> value_observed("GPALLLHRLTAP")
0.684
>>> value_observed("EGRTQTLPSRVT")
0.638
>>> value_observed("SGLSPPSRVCGY")
0.651
>>> value_observed("GGRGPRGAANRG")
0.634
>>> value_observed("STLSSPSRRLLP")
0.677
>>> value_observed("RLGWGGVGGAGV")
0.711
>>> value_observed("FDRWEDCKGTRD")
0.71
>>> value_observed("NKKKGYRKKQNH")
0.567
>>> value_observed("FSPPPLPAASPS")
0.664
>>> value_observed("PPPVPPPPAHTP")
0.681
>>> value_observed("LGLLVLARFSPL")
0.708
>>> value_observed("PPPPLAPLPPAS")
0.608
>>> value_observed("TLTDCRKKCGRV")
0.715
>>> value_observed("RYLVLPDLCPIS")
0.736
>>> value_observed("ERRSGGHCRKSG")
0.685
>>> value_observed("FTPSSPPLPLLP")
0.655
>>> value_observed("IYERTEENKRVN")
0.591
>>> value_observed("LSHMRVSLTRPR")
0.707
>>> value_observed("SGLRFLSWSVHV")
0.611
>>> value_observed("SKIQDHLNTAPE")
0.654
>>> value_observed("LPPGIPLRSSPP")
0.683
>>> value_observed("PRPGPPPPPPSP")
0.713
>>> value_observed("LYPEELQATAVY")
0.589
>>> value_observed("SCLCIHEIFLRL")
0.672
>>> value_observed("WLRPRSFSVVAT")
0.528
>>> value_observed("LPPRPPESLHLP")
0.724
>>> value_observed("RPPLSPLLYPPP")
0.711
>>> value_observed("PQPPFTHGLIPS")
0.706
>>> value_observed("LGGVEDRWRTAT")
0.365
>>> value_observed("TCVLPDLNTRWS")
0.685
>>> value_observed("WGVSVVEGGRSG")
0.736
>>> value_observed("GFLSSLRLLPPF")
0.688
>>> value_observed("RKNQNAWMPALQ")
0.702
>>> value_observed("MIVAIQLVDHPP")
0.484
>>> value_observed("LFKRTWRVEGFG")
0.705
>>> value_observed("RKWLFFRSWRYV")
0.134
>>> value_observed("LRNGSFFLVFSC")
0.531
>>> value_observed("PFRFLFGISLFF")
0.559
>>> value_observed("SVVVWRWVCGWS")
0.549
>>> value_observed("CFPYFCGFLGPL")
0.697
